Below, each entry is listed alongside its reported herbicidal effect rating, ORYSAT (rice tolerance).
tested on: Oryza sativa, (L.) Tebonnet; test: Rice tolerance to post-transplant applications under flooded paddy conditions (Example 187), ORYSAT (Rice, Tebonnet); conditions: 0.2500 kg/ha, rated three to four weeks after treatment
Answer with a number only.

INSERT INTO results (compound, recorded_measurement) VALUES
  ('Cn1c(C(F)(F)F)cc(=O)n(-c2ccc3snc(CP(=O)(O)O)c3c2)c1=O', 6.0),
  ('Cc1cc(O)c(-c2nsc3ccc(-n4c(=O)cc(C(F)(F)F)n(C)c4=O)cc23)cc1C', 3.0);

## Task Need herbicidal effect rating, ORYSAT (rice tolerance), item COC(=O)C(C)Oc1ccc(C)cc1-c1nsc2ccc(-n3c(=S)cc(C(F)(F)F)n(C)c3=O)cc12 (stereo not shown)
## Result 3.5

## Task Same read-out for "Cn1c(C(F)(F)F)cc(=O)n(-c2ccc3snc(C(Cl)Cl)c3c2)c1=O" ?
## Result 7.0

## Task Next record, please: "CCc1ccc(-c2nsc3ccc(-n4c(=O)cc(C(F)(F)F)n(C)c4=O)cc23)cc1"
## Result 5.0

## Task Item: "Cc1ccc(OCC(=O)OCCN(C)C)c(-c2nsc3ccc(-n4c(=O)cc(C(F)(F)F)n(C)c4=O)cc23)c1"
## Result 6.5

## Task How about this compound: C=CC(C)OCc1nsc2ccc(-n3c(=O)cc(C(F)(F)F)n(C)c3=O)cc12 (stereo not shown)
## Result 9.0

## Task Also "Cc1ccc(OCC(=O)OC(C)(C)C)c(-c2nsc3ccc(-n4c(=O)cc(C(F)(F)F)n(C)c4=O)cc23)c1" ?
## Result 1.0

## Task How about this compound: "C=CCOc1ccc(C)cc1-c1nsc2ccc(-n3c(=O)cc(C(F)(F)F)n(C)c3=O)cc12"
## Result 0.0

## Task Next: "CC(C)SCc1nsc2ccc(-n3c(=O)cc(C(F)(F)F)n(C)c3=O)cc12"
## Result 6.0

## Task Proceed to "COC(=O)COc1ccc(C)cc1-c1nsc2ccc(-n3c(=O)cc(C(F)(F)F)n(C)c3=O)cc12"
## Result 5.0

## Task Do the same for "COC(=O)COc1cc(C)c(C)cc1-c1nsc2ccc(-n3c(=O)cc(C(F)(F)F)n(C)c3=O)cc12" please
## Result 8.0

## Task Quick one: "Cn1c(C(F)(F)F)cc(=O)n(-c2ccc3snc(COCCCl)c3c2)c1=O"
## Result 9.0

## Task Again, but for "CC(C)=CCOC(=O)COc1ccc(C)cc1-c1nsc2ccc(-n3c(=O)cc(C(F)(F)F)n(C)c3=O)cc12"
## Result 6.0

## Task Try "COc1ccccc1Oc1noc2ccc(-n3c(=O)cc(C(F)(F)F)n(C)c3=O)cc12" next.
## Result 3.0

## Task Try this compound too: "Cn1c(C(F)(F)F)cc(=O)n(-c2ccc3onc(-c4ccccc4)c3c2)c1=O"
## Result 7.0

----------
tested on: Oryza sativa, (L.) Tebonnet; assay: Rice tolerance to post-transplant applications under flooded paddy conditions (Example 187), ORYSAT (Rice, Tebonnet); conditions: Rate 0.2500 kg/ha, rated three to four weeks after treatment; for herbicidal effect rating ORYSAT: meaning of each grade not given here
# herbicidal effect rating ORYSAT binned as lo = under 3, med = from 3 up to 8, hi = 8 and over

Answered examples (8):
INSERT INTO assay_data (compound, category) VALUES
  ('CCOP(=O)(Cc1nsc2cc(F)c(-n3c(=O)cc(C(F)(F)F)n(C)c3=O)cc12)OCC [Example 377]', 'hi'),
  ('Cn1c(C(F)(F)F)cc(=O)n(-c2ccc3snc(-c4ccccc4OCC(=O)NS(=O)(=O)CCl)c3c2)c1=O [Example 344]', 'hi'),
  ('Cn1c(C(F)(F)F)cc(=O)n(-c2ccc3snc(COCc4ccc(Cl)cc4Cl)c3c2)c1=O [Example 585]', 'lo'),
  ('Cn1c(C(F)(F)F)cc(=O)n(-c2ccc3snc(C(=O)NS(=O)(=O)CCl)c3c2)c1=O [Example 324]', 'hi'),
  ('COc1ccc(O)c(-c2nsc3ccc(-n4c(=O)cc(C(F)(F)F)n(C)c4=O)cc23)c1 [Example 361]', 'med'),
  ('Cc1nsc2cc(F)c(-n3c(=O)cc(C(F)(F)F)n(C)c3=O)cc12 [Example 366]', 'hi'),
  ('Cn1c(C(F)(F)F)cc(=O)n(-c2ccc3snc(C(=O)Nc4cc(C(C)(C)C)on4)c3c2)c1=O [Example 331]', 'lo'),
  ('CCS(=O)(=O)NC(=O)c1nsc2ccc(-n3c(=O)cc(C(F)(F)F)n(C)c3=O)cc12 [Example 383]', 'med');

## Task // bin(item) where item = Cn1c(C(F)(F)F)cc(=O)n(-c2ccc3snc(C(Cl)Br)c3c2)c1=O (stereo not drawn) [Example 300]
## Result med

## Task And what about the compound COC(=O)CN(Cc1nsc2ccc(-n3c(=O)cc(C(F)(F)F)n(C)c3=O)cc12)S(C)(=O)=O [Example 306] ?
## Result lo

## Task And then CNC(=O)OCc1nsc2ccc(-n3c(=O)cc(C(F)(F)F)n(C)c3=O)cc12 [Example 374] , what is it?
## Result med
